- test-system: Cytochrome P450 2D6 (Homo sapiens)
- test-description: Cytochrome panel assay with activity outcomes
- recorded-conditions: recombinant CYP, pro-luciferin dealkylation, luminescence, p450-cyp2d6; series mostly up to 57.1 µM
Hit rate of the full screen: of about 16,000 compounds, about 2,600 (16%) were called active. About 20% were inconclusive and are not listed. Calls come from the whole dose curve; as a rule, active = well fitted curve in the direction sought with a large enough effect; inconclusive = small, poorly fitted or top-dose-only effect, or effect the other way; inactive = no such curve, though single readings can be large or run the other way. Only a sample is shown.
Choose one outcome from this list and give only that: t = active, f = inactive

O=C1C(=O)N(c2cccc(Cl)c2)C(c2ccccc2[N+](=O)[O-])/C1=C(\O)c1ccccc1 (centres undefined) :: f

Ask: Could you kindly confirm the outcome this assay logged for "CCN(CC)c1ccc(NC(=O)c2cccc(F)c2)c(C)c1" ?
Result: f
